experiment: logP determination by HPLC on a reversed-phase column (C18)
Type: physicochemical
experimental setup: HPLC-MS, reversed-phase column (C18); Table I-T3
measurement kind: log P
Answers are plain numbers.

compound | log P
Cc1cc(C(F)(C(F)(F)F)C(F)(F)F)cc(C)c1-n1cc(-c2cnc(C)c(C(=O)NC3(C#N)CC3)c2)cn1 | 3.4

I have 6 compounds here; please give me log P for each one.
1. Cc1cc(C(F)(C(F)(F)F)C(F)(F)F)cc(C(F)(F)F)c1-n1cc(-c2cnc(Cl)c(C(=O)NC3(C#N)CC3)c2)cn1
2. CCc1cc(C(F)(C(F)(F)F)C(F)(F)F)cc(C)c1-n1cc(-c2cnc(Cl)c(C(=O)NC3CC3)c2)cn1
3. CN(C(=O)c1cc(-c2cnn(-c3c(Cl)cc(C(F)(C(F)(F)F)C(F)(F)F)cc3C(F)(F)F)c2)cnc1Cl)C1(C#N)CC1
4. CN(C(=O)c1cc(-c2cnn(-c3c(Cl)cc(C(F)(C(F)(F)F)C(F)(F)F)cc3OC(F)F)c2)cnc1Cl)C1CC1
5. CC[S+]([O-])c1cc(C(F)(C(F)(F)F)C(F)(F)F)cc(Cl)c1-n1cc(-c2ccc(Cl)c(C(=O)NC3(C#N)CC3)c2)cn1 (centres unmarked)
6. COc1ncc(-c2cnn(-c3c(C)cc(C(F)(C(F)(F)F)C(F)(F)F)cc3C)c2)cc1C(=O)NC1(C#N)CC1

Solution:
1: 4.0; 2: 4.2; 3: 4.3; 4: 4.2; 5: 3.8; 6: 4.4

Recorded values, source patent US10150737B2.
